In this section we review reported melting point values for a set of compounds.

Previously resolved entries follow.
CCc1ncc(C(=O)O)s1 = 151 to 153 °C
CC1C(=O)Nc2ccc(S(=O)(=O)Cl)cc21 (stereo not drawn) = 164 to 168 °C

# input Indicate the recorded melting point value for this compound: `Nc1ccc(CN2CCN(c3ccccn3)CC2)cc1`
# output 101 to 103 °C

* * *

endpoint label: melting point

Previously resolved entries follow.
O=C1NC2CCCCCCC12 (stereo unspecified) = 64 to 66 °C
Clc1ccc(Cn2cncn2)cn1 = 61 to 63 °C
O=C(O)c1ccc(-c2cc(F)c(F)c(F)c2)cc1 = 264 to 266 °C
Cc1cccc(-c2nnc(CO)o2)c1 = 82 to 84 °C

# input Indicate the recorded melting point value for this compound: `Cc1cc(F)ccc1-n1cc(O)c(C(=O)O)n1`
# output 149 to 151 °C

# input Indicate the recorded melting point value for this compound: `CC(C)(C)c1ccc(C(=O)N=C=S)cc1`
# output 33 to 35 °C

# input Indicate the recorded melting point value for this compound: `COc1ccc(N=C=S)cc1Cl`
# output 88 to 90 °C

# input Indicate the recorded melting point value for this compound: `CC(=O)c1cccc(OCc2cn3ccccc3n2)c1`
# output 77 to 79 °C

# input Indicate the recorded melting point value for this compound: `NC(=NO)c1cccc(CN2CCCCC2)c1`
# output 153 to 155 °C

* * *

In this section we review reported melting point values for a set of molecules.

O=S(=O)(c1ccc2c(c1)CCN2)N1CCCCC1 = 171 to 173 °C
O=C(O)CS(=O)(=O)CC(=O)Nc1cccc(Br)c1 = 165 to 167 °C
COc1ccc(NC#N)cc1Cl = 95 to 97 °C
CC(=O)c1ccc(-c2ccncc2)cc1 = 93 to 95 °C
COc1cc(-n2cccc2)c(Cl)cc1C(=O)O = 152 to 154 °C

# input Indicate the recorded melting point value for this molecule: `O=C1C=CC(=O)N1c1cc(Cl)cc(Cl)c1`
# output 139 to 141 °C

# input Indicate the recorded melting point value for this molecule: COc1ccccc1C(=O)NC(C(=O)O)C(C)C (configuration not stated)
# output 128 to 129 °C

* * *

In this section we review reported melting point values for a set of compounds.

O=Cc1ccc(-n2ccnc2)c(F)c1 = 69 to 71 °C
CNS(=O)(=O)c1ccc(/C=C/C(=O)O)cc1 = 259 to 261 °C
CC(C)(C)c1ccc(C(=O)NCCC(=O)O)cc1 = 129 to 131 °C
NS(=O)(=O)c1cnc2c(c1)CCC2 = 188 to 190 °C
Cc1cc(C)cc(OCCC(=O)O)c1 = 88 to 90 °C

# input Indicate the recorded melting point value for this compound: `CC(C)Oc1cc(C(=O)O)ccn1`
# output 145 to 147 °C

* * *

In this section we review reported melting point values for a set of molecules.

Cc1oc2c(F)c(F)c(F)c(F)c2c1C(=O)O = 206 to 208 °C
N#Cc1ccc(I)c(C(F)(F)F)c1 = 100 to 102 °C
O=C(Nc1ccccc1CO)c1ccco1 = 95 to 97 °C
NC(=O)C1CCCN(c2ccc(C(=O)O)cc2)C1 (configuration not stated) = 259 to 261 °C

# input Indicate the recorded melting point value for this molecule: `O=C(O)c1nnn(-c2cccc(F)c2)c1C(F)(F)F`
# output 130 to 132 °C

# input Indicate the recorded melting point value for this molecule: `Nc1nc(SCc2ccccc2)ns1`
# output 104 to 106 °C

# input Indicate the recorded melting point value for this molecule: `CC(C)(C)CC(=O)Nc1ccc(CC(=O)O)cc1`
# output 179 to 181 °C

# input Indicate the recorded melting point value for this molecule: `COc1cc(C)cc(C(=O)O)c1O`
# output 189 to 191 °C

# input Indicate the recorded melting point value for this molecule: `CCn1ncc(C#N)c1N`
# output 159 to 161 °C

# input Indicate the recorded melting point value for this molecule: `Brc1cnc2nc3ccccc3n2c1`
# output 269 to 271 °C

* * *

In this section we review reported melting point values for a set of molecules.

Previously resolved entries follow.
CCC1(C(=O)O)CCOCC1 = 83 to 85 °C
CC(C)Oc1cccnc1C(=O)O = 199 to 201 °C
CC(C)(C)OC(=O)NC1(CN)CCCCCC1 = 77 to 79 °C

# input Indicate the recorded melting point value for this molecule: `CSc1nc(Cl)cc(CCl)n1`
# output 28 to 32 °C

# input Indicate the recorded melting point value for this molecule: `OCc1ccc(F)c2cccnc12`
# output 131 to 133 °C

# input Indicate the recorded melting point value for this molecule: `O=C(O)CCCOc1cccc(F)c1`
# output 51 to 53 °C

# input Indicate the recorded melting point value for this molecule: CC(=O)NCc1ccc(C(=O)C(C)Cl)s1 (centres undefined)
# output 79 to 81 °C

# input Indicate the recorded melting point value for this molecule: `CC1(C)C(=O)Nc2ccc(Br)cc21`
# output 156 to 158 °C

* * *

In this section we review reported melting point values for a set of molecules.

Previously resolved entries follow.
O=[N+]([O-])c1ccccc1C(O)c1cccnc1 (stereo not drawn) = 102 to 104 °C
CC(NC(=O)c1ccoc1)C(=O)O (stereo not drawn) = 166 to 168 °C
Cc1ccc2[nH]c(C(=O)O)c(Cl)c2c1 = 191 to 193 °C

# input Indicate the recorded melting point value for this molecule: `O=S(=O)(F)Cc1ccc(Cl)nc1`
# output 81 to 83 °C

# input Indicate the recorded melting point value for this molecule: `O=C(O)CCCNc1ccc(C(F)(F)F)cn1`
# output 91 to 93 °C

* * *

endpoint label: melting point

Previously resolved entries follow.
Cc1ccc(NC(=O)C(=O)NN)cc1C = 182 to 184 °C
CC(C)c1cc(C(=O)O)on1 = 74 to 76 °C
Sc1nnc(NCC2CCCO2)s1 (stereo not given) = 123 to 125 °C
COC(=O)CCNc1ccc(F)cc1[N+](=O)[O-] = 76 to 78 °C
N#CCOc1ccc(N)cc1 = 51 to 53 °C

# input Indicate the recorded melting point value for this compound: `Cc1cc(C(=O)CCl)c(C)n1-c1ccc(C(C)(C)C)cc1`
# output 102 to 104 °C

# input Indicate the recorded melting point value for this compound: `Cc1nnc2c(Cl)cccn12`
# output 163 to 165 °C

# input Indicate the recorded melting point value for this compound: `O=C(CCOc1ccccc1)NO`
# output 138 to 140 °C

# input Indicate the recorded melting point value for this compound: CCn1ccnc1C(O)CCc1ccccc1 (stereo not given)
# output 77 to 79 °C

# input Indicate the recorded melting point value for this compound: `ClCc1ncc(-c2ccccc2)s1`
# output 39 to 41 °C

# input Indicate the recorded melting point value for this compound: `CS(=O)(=O)CCS(N)(=O)=O`
# output 149 to 151 °C

* * *

In this section we review reported melting point values for a set of molecules.

Previously resolved entries follow.
COc1cc(C(=O)O)c([N+](=O)[O-])cc1OCC#N = 149 to 151 °C
Cc1cc(C(=O)O)cc(S(=O)(=O)Cl)c1F = 193 to 195 °C
Cc1nn(C)c(C)c1C(O)C(F)(F)F (centres undefined) = 140 to 142 °C

# input Indicate the recorded melting point value for this molecule: `CC(=O)N(c1nc(CCl)cs1)C1CC1`
# output 56 to 58 °C

* * *

In this section we review reported melting point values for a set of compounds.

# input Indicate the recorded melting point value for this compound: `CCC(=O)c1ccccc1OC(F)F`
# output 30 to 32 °C

# input Indicate the recorded melting point value for this compound: `NC(=O)c1ccc(N2CCC(C(=O)O)CC2)nc1`
# output 284 to 286 °C

# input Indicate the recorded melting point value for this compound: O=C(O)C1Cc2ccccc2CN1S(=O)(=O)c1ccc(F)cc1 (configuration not stated)
# output 99 to 101 °C

# input Indicate the recorded melting point value for this compound: `CC(=O)N(c1nc(C=O)cs1)C1CC1`
# output 112 to 114 °C

# input Indicate the recorded melting point value for this compound: `O=C(Nc1sccc1C(=O)O)c1ccco1`
# output 196 to 198 °C

# input Indicate the recorded melting point value for this compound: `NS(=O)(=O)c1ccc(N2CCCC2=O)cc1`
# output 247 to 249 °C

# input Indicate the recorded melting point value for this compound: `Sc1nnc(Nc2ccccc2Cl)s1`
# output 174 to 176 °C

# input Indicate the recorded melting point value for this compound: `CC1CNc2ccccc2NC1`
# output 82 to 84 °C

# input Indicate the recorded melting point value for this compound: `NCc1nnc2n1CCC2`
# output 20 to 22 °C

# input Indicate the recorded melting point value for this compound: `CSCC[C@H](N)C(=O)NO`
# output 148 to 150 °C

# input Indicate the recorded melting point value for this compound: `Cc1cc(/C=C/C(=O)O)c(C)n1-c1ccc2c(c1)OCO2`
# output 194 to 196 °C

# input Indicate the recorded melting point value for this compound: `O=Cc1c(-c2ccccc2)n(-c2ccccc2)c2ccccc12`
# output 246 to 248 °C
